Assay: PhoP regulon inhibitors, Salmonella typhi PhoP promoter GFP reporter, confirmatory (AID 1850);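 further: 0% = induced wells with vehicle and 100% = uninduced wells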
Details: fluorescence, 4 h, at 50 µM, active compounds read high
The campaign covered roughly 310,000 compounds. About 1,000 (0.32%) were called active. Only a sample is shown. Potency and affinity values are given separately.
result_type: inhibition (%)
The figure you give is taken to be in %; do not add the unit.

Please review the entries below; each comes with its answer.
INSERT INTO measurements (molecule, result_type, value_unit, measured) VALUES
  ('c1coc(-c2cc(C3CCNCC3)[nH]n2)c1', 'inhibition', '%', 10.6),
  ('Cc1ccc[n+](CC(=O)Nc2ccc([N+](=O)[O-])cc2)c1', 'inhibition', '%', 6.66),
  ('CC(=O)Nc1ccc(NC(=O)c2cccc(-c3cc4ccccc4oc3=O)c2)cc1', 'inhibition', '%', 12.9),
  ('COc1ccc(NC(=O)C2CCCN2C(=O)NCc2ccccc2)cc1 (stereo unspecified)', 'inhibition', '%', -5.86),
  ('O=C(c1ccc(F)cc1F)N1CCN(c2n[nH]c(=O)[nH]c2=O)CC1', 'inhibition', '%', -2.71),
  ('CN(C)CCCN(C(=O)C1=COCCO1)c1nc2ccc(Br)cc2s1', 'inhibition', '%', -8.06);

May I ask what inhibition has been recorded for CN(C)CCCN(C(=O)c1sc2ccccc2c1Cl)c1nc2ccc(F)cc2s1 ?
-7.99

Entry CCOc1ccc2nc(N(CCCN(C)C)C(=O)c3ccc4c(c3)CCCC4)sc2c1 has what inhibition?
2.97

Look up inhibition for this molecule: CC(C)(C)NC(=O)/C(=C/c1ccccc1F)NC(=O)c1ccc([N+](=O)[O-])cc1
7.24

// returns reported inhibition for input CN(C)CCN(C(=O)C1=COCCO1)c1nc2ccc(F)cc2s1
-3.62

I have this molecule here, Cc1cccc[n+]1CC(=O)Nc1ccc([N+](=O)[O-])cc1 , and I need its recorded inhibition.
1.95

###

Measured inhibition, listed per entry for reference.
Experiment: PhoP regulon inhibitors, Salmonella typhi PhoP promoter GFP reporter, confirmatory (AID 1850);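 further: 0% = induced wells with vehicle and 100% = uninduced wells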
Settings: fluorescence, 4 h, at 50 µM, active compounds read high
In all, about 310,000 compounds went through this assay and about 1,000 (0.32%) were called active. These entries were drawn from the full list. Measured potencies and affinities stand elsewhere.

Some compounds with known inhibition results, for comparison:
INSERT INTO assay_data (compound, result_type, measured) VALUES
  ('COc1ccc(CC(=O)NC(C)C2COc3ccccc3O2)cc1OC (stereo not given)', 'inhibition', '0.47% (inactive)'),
  ('COc1cc(NC(=O)c2cccs2)c(C(=O)OCC(=O)NC(=O)NCc2ccccc2)cc1OC', 'inhibition', '-3.62% (inactive)'),
  ('Cc1ccc(-n2nc3c(=S)[nH]nc(C)c3c2C)cc1', 'inhibition', '2.54% (inactive)'),
  ('COc1cccc(NC(=S)NC(=O)Cc2ccc(Cl)cc2)c1', 'inhibition', '-3.77% (inactive)');

Would you kindly look at the next entry?
I have this compound here, CCN(CC)S(=O)(=O)c1ccc(OC)c(NC(=O)c2ccc(-n3cncn3)c([N+](=O)[O-])c2)c1 , and I need its recorded inhibition.
1.29% (inactive)

###

Test: PhoP regulon inhibitors, Salmonella typhi PhoP promoter GFP reporter, confirmatory (AID 1850);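 further: 0% = induced wells with vehicle and 100% = uninduced wells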
Conditions: fluorescence, 4 h, at 50 µM, active compounds read high
Hit rate of the full screen: of about 310,000 compounds, about 1,000 (0.32%) were called active. These entries were drawn from the full list. Results with a measured potency or affinity are listed apart.
result_type: inhibition

Reference set, count: 5
INSERT INTO measurements (compound, measured) VALUES
  ('Cc1ccc(OCC(O)CNC(C)c2ccccc2)cc1C (stereo unspecified)', '-6.36% (inactive)'),
  ('CC(C)c1ccc(OCC(O)CNC(C)c2ccccc2)cc1 (stereo unspecified)', '1.07% (inactive)'),
  ('CC(NCC(O)COCc1ccc(Cl)cc1)c1ccccc1 (stereo unspecified)', '-6.47% (inactive)'),
  ('O=c1cc(-c2ccccc2)nc(SCCOc2ccccc2Cl)[nH]1', '3.72% (inactive)'),
  ('CC(=O)Nc1ccc(S(=O)(=O)N2CCN(c3cc(C)nc4ncnn34)CC2)cc1', '-16.9% (inactive)');

Quick one: inhibition for O=S(=O)(c1ccc(-c2csc(-c3cccnc3)n2)cc1)N1CCCC1 ?
0% (inactive)

Data request, read-out inhibition, for CNC[C@H](CC1CCCCC1)NC[C@H](CO)NCC1(c2ccccc2)CC1
-8.16% (inactive)
